Every entry's value here was drawn from PubChem BioAssay AID248.

T/C by entry:
Test system: L1210 leukemia ip in BDF1 mice, survival T/C
assay.remarks: NCI In Vivo Anticancer Drug Screen. Data for tumor model L1210 Leukemia (intraperitoneal) in B6D2F1 (BDF1) mice
assay.setup: endpoint: mean survival time; dose: 200.0 mg/kg/injection; schedule: Q04DX003 (ip); vehicle: saline with Tween-80; higher = longer survival
Inconclusive results and toxic doses are left out.

For orientation, consider the following solved cases.
[[record]]
compound = "COc1ccc(OC)c(N=C2C(=O)Nc3ccc(Br)cc32)c1"
target_or_system = "L1210 leukemia ip in BDF1 mice, survival T/C"
value = "93 % of control"

[[record]]
compound = "COc1ccc(C(C)c2ccc(OC)cc2)cc1"
target_or_system = "L1210 leukemia ip in BDF1 mice, survival T/C"
value = "95 % of control"

[[record]]
compound = "CN1C(=O)CC(NC(=O)OCc2ccccc2)C1=O (stereo unspecified)"
target_or_system = "L1210 leukemia ip in BDF1 mice, survival T/C"
value = "103 % of control"

[[record]]
compound = "C/C=C/Cn1cnc2c1c(=O)n(C)c(=O)n2C"
target_or_system = "L1210 leukemia ip in BDF1 mice, survival T/C"
value = "95 % of control"

[[record]]
compound = "OC(C1CCCCN1)C12CC3CC(CC(C3)C1)C2 (stereo unspecified)"
target_or_system = "L1210 leukemia ip in BDF1 mice, survival T/C"
value = "95 % of control"


Please report the recorded T/C for O=S(=O)(/N=C1C=C/C(=N\S(=O)(=O)c2ccccc2)c2ccccc2\1)c1ccccc1 .
90 % of control
